molecular target: hMMP 13 (Homo sapiens); construct: purchased R&D systems; assay: Residual enzyme activity of other metalloproteases; assay type: biochemical; details: 200 μM inhibitor; read-out: Residual enzyme activity MMP13
Catalogue of remaining activity at 200 µM values
Use % as the unit, but write only the number.

These solved cases illustrate the format of a correct answer.
O=C(CCc1c(-c2ccccc2)noc1-c1ccccc1)NO	66
COc1ccc(-c2n[nH]c(-c3ccccc3)c2CC(=O)NO)cc1OC	18
O=C(Cc1c(-c2ccccc2)nn(Cc2ccc(C(=O)O)cc2)c1-c1ccccc1)NO	22
O=C(Cc1c(-c2cccc(C(=O)O)c2)n[nH]c1-c1ccc(Cl)c(O)c1F)NO	73
O=C(Cn1c(-c2ccccc2)nnc1-c1ccccc1)NO	76

Attention now shifts to the item below.
Just so you know, measured remaining activity at 200 µM for O=C(Cc1c(-c2ccccc2)noc1-c1ccccc1)NO came out at 31

====

target: hMMP 13 (Homo sapiens, UniProt P45452); construct: purchased R&D systems; test: Residual enzyme activity of other metalloproteases; format: biochemical; conditions: 10 μM inhibitor; read-out: Residual enzyme activity MMP13
assay-readout: remaining activity at 10 µM
Answer format: value, then unit.

These solved cases illustrate the format of a correct answer.
O=C(Cc1c(-c2ccccc2)nn(Cc2ccc(Cl)c(O)c2F)c1-c1ccccc1)NO [Example 42]	84%
O=C(Cn1c(-c2ccccc2)nnc1-c1ccccc1)NO [Example 7]	93%
O=C(Cc1c(-c2ccccc2)nn(Cc2cccc(C(=O)O)c2)c1-c1ccccc1)NO [Example 41]	83%

Just so you know, measured remaining activity at 10 µM for O=C(Cc1c(-c2ccccc2)nn(Cc2ccc(C(=O)O)cc2)c1-c1ccccc1)NO [Example 40] came out at 86%

Just so you know, measured remaining activity at 10 µM for COc1ccc(-c2n[nH]c(-c3ccccc3)c2CC(=O)NO)cc1OC [Example 49] came out at 101%

Just so you know, measured remaining activity at 10 µM for O=C(Cc1c(-c2ccccc2)n[nH]c1-c1ccccc1)NO [Example 1] came out at 75%

Just so you know, measured remaining activity at 10 µM for O=C(CCc1c(-c2ccccc2)noc1-c1ccccc1)NO [Example 4] came out at 79%

====

molecular target: hMeprin β (Homo sapiens, UniProt Q16820); experiment: Enzymatic assay, quenched peptide substrate cleavage, method B; assay type: biochemical; settings: geometric mean (geometric SD factor in parentheses), read-out: Meprin beta IC50
Sequence (Q16820 62-701): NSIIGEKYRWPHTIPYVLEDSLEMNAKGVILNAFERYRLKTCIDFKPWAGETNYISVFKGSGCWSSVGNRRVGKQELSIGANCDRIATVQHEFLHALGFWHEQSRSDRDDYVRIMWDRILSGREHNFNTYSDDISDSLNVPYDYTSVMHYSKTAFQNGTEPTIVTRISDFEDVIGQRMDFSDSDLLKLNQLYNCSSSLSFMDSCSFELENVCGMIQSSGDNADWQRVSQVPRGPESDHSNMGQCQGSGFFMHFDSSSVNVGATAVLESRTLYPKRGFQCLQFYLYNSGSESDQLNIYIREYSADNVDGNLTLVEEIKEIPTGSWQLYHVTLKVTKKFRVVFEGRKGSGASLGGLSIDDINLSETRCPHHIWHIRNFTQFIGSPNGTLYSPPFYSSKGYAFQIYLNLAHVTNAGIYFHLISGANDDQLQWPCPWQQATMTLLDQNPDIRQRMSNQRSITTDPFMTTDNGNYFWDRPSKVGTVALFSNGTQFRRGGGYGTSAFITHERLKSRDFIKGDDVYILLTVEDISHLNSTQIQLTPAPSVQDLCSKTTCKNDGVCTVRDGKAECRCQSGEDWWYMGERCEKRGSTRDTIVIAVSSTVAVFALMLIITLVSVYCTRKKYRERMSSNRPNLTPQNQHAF
pIC50: −log10 of the molar value.
Binary classification by pIC50, with 7 as an inclusive lower bound for Satisfied; all other cases are Not satisfied.

Some solved entries appear below for comparison.
O=C(Cc1c(C2CCCC(C(=O)O)C2)n[nH]c1-c1ccccc1)NO (stereo not shown)	Satisfied
O=C(Cc1c(-c2cccc(C(=O)O)c2)[nH]nc1[C@H]1CC[C@@H](C(=O)O)CC1)NO	Satisfied
O=C(CCc1c(-c2ccccc2)n[nH]c1-c1ccccc1)NO	Not satisfied
O=C(Cc1c(Cc2ccccc2)n[nH]c1-c1ccccc1)NO	Not satisfied
O=C(Cc1c(-c2cccc(-c3nnn[nH]3)c2)n[nH]c1-c1ccccc1)NO	Satisfied
N#Cc1cccc(-c2n[nH]c(-c3ccccc3)c2CC(=O)NO)c1	Not satisfied

Exercise: Given the entry O=C(Cc1c(-c2ccccc2)noc1-c1ccccc1)NO , answer whether its pIC50 meets or surpasses 7.
Solution: Not satisfied

Exercise: Given the entry O=C(Cc1c(-c2cccc(C(=O)O)c2)n[nH]c1-c1cc(F)c(O)c(Cl)c1)NO , answer whether its pIC50 meets or surpasses 7.
Solution: Satisfied
